assay: compound fluorescence in toxin protease inhibitor counterscreen, primary screen, artefact control for toxin protease inhibitor project, biochemical, multiplex microsphere, HTS (AID 624483); conditions: compound autofluorescence counterscreen, microsphere flow cytometry
About 11,000 (3.1%) of roughly 360,000 compounds were called active. About 2% were inconclusive and are not listed. Rule as the data show it: active = fluorescence intensity above about 16000; inconclusive = no clear call, values can overlap the other calls; inactive = below that. The entries come from a sample that favours actives as a whole.
Choose the fitting class; nothing outside 1 (yes) for active, 0 (no) for inactive is accepted.

Please review the entries below; each comes with its answer.
>  <molecule>
CC1(C)CC(=O)C=C(NCCCN2CCCC2=O)C1

>  <classAssignment>
0 (no)

$$$$
>  <molecule>
CSc1ccccc1C(=O)NCc1ccccc1

>  <classAssignment>
0 (no)

$$$$
>  <molecule>
Clc1ccc(CSc2nnc3c(n2)[nH]c2ccccc23)cc1

>  <classAssignment>
0 (no)

$$$$
>  <molecule>
CCN(CC(=O)NC(C)C)C(=O)CCNC(=O)c1ccc(Cl)cc1

>  <classAssignment>
1 (yes)

$$$$
>  <molecule>
C=C1C(=O)[C@]23C[C@H]1CCC2[C@@]1(C)C(C[C@@H]3O)[C@](C)(C(=O)O)CC[C@@H]1O (stereo partly drawn)

>  <classAssignment>
0 (no)

$$$$
>  <molecule>
O=C(NCc1cccnc1)c1cccnc1Sc1ccc(Cl)cc1

>  <classAssignment>
1 (yes)

$$$$
>  <molecule>
CC(=O)NC(c1ccccc1)c1nc(-c2ccccc2C)cs1 (stereo not drawn)

>  <classAssignment>
0 (no)

$$$$
>  <molecule>
CC1(C)CC(=O)C=C(NC2CC(C)(C)NC(C)(C)C2)C1

>  <classAssignment>
0 (no)

$$$$

Test call, this molecule: "Cc1nc2nc(C)c(CCC(=O)N3CCC4(CC3)OCCO4)c(C)n2n1"
0 (no)

Identify the outcome logged in this assay for the molecule shown: CCCCn1nnnc1C(c1cc2ccccc2o1)N(C)Cc1ccc(Cl)c(Cl)c1 (stereo not drawn)
0 (no)

Called result for O=C(CCNC(=O)c1ccc(Cl)cc1)NC1CCCc2ccccc21 (stereo not drawn)
0 (no)

Assay result, entry Cc1nn(Cc2ccc(C(=O)N3N=C(C(F)F)CC3(O)C(F)F)cc2)c(C)c1[N+](=O)[O-] (stereo not drawn) — outcome?
1 (yes)

Please share the test call associated with "Cc1cc(Cl)ccc1-c1nc(NCCN(C)C)nc2ccsc12" .
0 (no)

Please share the test call associated with "CCOC(=O)c1cnc2c(c(C)nn2CC)c1Cl" .
0 (no)

====

assay: compound fluorescence in toxin protease inhibitor counterscreen, primary screen, artefact control for toxin protease inhibitor project, biochemical, multiplex microsphere, HTS (AID 624483); conditions: compound autofluorescence counterscreen, microsphere flow cytometry; hits give high values
The whole screen tested about 360,000 compounds, of which about 11,000 (3.1%) were called active. Not shown: some 2% with an inconclusive outcome. The entries come from a sample that favours actives as a whole.
quantityMeasured: fluorescence intensity

Study these solved cases before continuing.
>  <compound>
O=S(=O)(NC1CC1)c1ccc2c3c(cccc13)CC2

>  <fluorescence intensity>
4730 (inactive)

$$$$
>  <compound>
OC(c1ccc(Cl)cc1)c1ncc(-c2ccc(Cl)cc2)[nH]1 (centres undefined)

>  <fluorescence intensity>
3850 (inactive)

$$$$
>  <compound>
CCCc1nc2c([nH]1)C(c1cccnc1)C(C#N)=C(N)O2 (centres undefined)

>  <fluorescence intensity>
7630 (inactive)

$$$$
>  <compound>
C=CCn1c(N)cc(=O)nc1SCC(=O)Nc1cccc2ccccc12

>  <fluorescence intensity>
4460 (inactive)

$$$$
>  <compound>
COc1ccc(C2C(C#N)=C(N)Oc3n[nH]c(C)c32)cc1CN1CCN(c2ccc(F)cc2)CC1 (centres undefined)

>  <fluorescence intensity>
24200 (active)

$$$$

Per the record, "Cc1ccc(Nc2c(F)c(F)c(F)c(F)c2C(=O)O)c(C)c1" has fluorescence intensity of 3820 (inactive)

Lab note: measured fluorescence intensity of "Cc1oc(-c2ccccc2F)nc1CS(=O)(=O)CC(=O)NCCCN(C)C1CCCCC1" was 17000 (active)

Measured fluorescence intensity, "CCc1nc2c(OCCOc3ccc(F)cc3)cccn2c1N(C)C(=O)c1ccccc1F" : 3010 (inactive)

Kindly note the recorded fluorescence intensity for "COc1ccc(CCn2c(O)c(C=NCCCn3ccnc3)c(=O)[nH]c2=O)cc1OC" , which is 22700 (active)

Lab note: COc1ccccc1CN1CCCC(N2CCN(c3ccc(F)cc3)CC2)C1 (centres undefined) gave fluorescence intensity of 4030 (inactive)

====

assay: compound fluorescence in toxin protease inhibitor counterscreen, primary screen, artefact control for toxin protease inhibitor project, biochemical, multiplex microsphere, HTS (AID 624483); conditions: compound autofluorescence counterscreen, microsphere flow cytometry; hits give high values
The whole screen tested about 360,000 compounds, of which about 11,000 (3.1%) were called active. About 2% were inconclusive and are not listed. Many of the other results were omitted from the sample, so actives are more common in it than they were.
Please note: met applies when fluorescence intensity is 4000 or greater, and not met applies otherwise.

>  <compound>
CCNC(=O)C1CCCN(C(=O)c2ccc(OC)cc2OC)CC1 (centres undefined)

>  <classAssignment>
not met

$$$$

Quick check, fluorescence intensity >= 4000? "COC(=O)[C@]12CCCCC=C1N(Cc1ccc(Cl)cc1Cl)C(=O)[C@H](CC(=O)NCc1cccc3ccccc13)C2"
met

Dear colleague, could you confirm whether "CCOc1ccc(CCN2C(=S)N([C@@H](CC(C)C)CN3CCC[C@@H]3CN3C(=S)NC[C@@H]3Cc3ccc(O)cc3)C[C@@H]2CC(C)C)cc1" has fluorescence intensity at or above 4000?
met

Exam item: decide whether the reported fluorescence intensity for "FC(F)(F)c1ccccc1Cc1c(-c2ccccc2)nc2c3ccccc3ccn12" is at least 4000.
met

Does "COCCNC(=O)CSc1nc2c(n1-c1ccccc1)CCCC2" have a reported fluorescence intensity of at least 4000?
not met

I'd appreciate it if you could say whether CC1=C(C(=O)N2CCOCC2)CC(CC(=O)NCc2cccs2)C(=O)N1CCCN1CCCC1=O (centres undefined) has fluorescence intensity at least equal to 4000.
met

State whether the measured fluorescence intensity reaches 4000, counting equality as reaching it, for COc1ccccc1CC1(C)C(=O)Nc2ccc(OC(F)(F)F)cc21 (centres undefined)
not met

State whether the measured fluorescence intensity reaches 4000, counting equality as reaching it, for CC(Nc1nc(N2CCOCC2)nc2ccccc12)c1ccccc1 (centres undefined)
met

Confirm if fluorescence intensity reported for the compound "CCCCN(CC)C(=O)CN(C)S(=O)(=O)c1cccc2nsnc12" is 4000 or above.
met

====

assay: compound fluorescence in toxin protease inhibitor counterscreen, primary screen, artefact control for toxin protease inhibitor project, biochemical, multiplex microsphere, HTS (AID 624483); conditions: compound autofluorescence counterscreen, microsphere flow cytometry; hits give high values
About 11,000 (3.1%) of roughly 360,000 compounds were called active. Another 2% or so got no clear call; they are omitted. The sample as a whole holds a higher share of actives than the screen did.
quantityMeasured: fluorescence intensity
Output spec: single numeric token, no unit.

>  <compound>
COC(=O)c1ccc(COC(=O)c2c(C)nn(Cc3ccccc3Cl)c2Cl)o1

>  <fluorescence intensity>
10900

$$$$

In the following, a different compound is considered.
For record "COc1ncnc2sc3c(c12)CCCC3" the listed fluorescence intensity is 23600

====

experiment: compound fluorescence in toxin protease inhibitor counterscreen, primary screen, artefact control for toxin protease inhibitor project, biochemical, multiplex microsphere, HTS (AID 624483); details: compound autofluorescence counterscreen, microsphere flow cytometry
Screen size: about 360,000 compounds; about 11,000 (3.1%) were called active. Not shown: some 2% with an inconclusive outcome. No stated cut-off is given here; in the data, active means fluorescence intensity above about 16000; inconclusive means no clear call, values can overlap the other calls; inactive means below that. For the sample, actives were picked, then their nearest neighbours and some compounds at random.
Write down one outcome, taken from class 1 (active), class 0 (inactive)

>  <molecule>
CCC/C(O)=C1\C(=O)CC(C)(C)CC1=Nc1ccccc1OC

>  <classAssignment>
class 0

$$$$
>  <molecule>
Cc1onc(-c2ccccc2)c1-c1nnc(COC(=O)c2ccc(N(C)C)cc2)o1

>  <classAssignment>
class 0

$$$$

// return assay outcome for "CCOc1ccccc1N=C1NC(=O)CS1"
class 1

Returns: the outcome recorded for COC(=O)C1=C(C(=O)c2ccc(C)cc2)C(c2ccccc2)n2nnnc2N1 (stereo not given) in this assay.
class 0

Name the outcome recorded for "CCOC(=O)c1ccc(-n2c(CCC(=O)O)ccc2-c2ccccc2)cc1" in the assay.
class 0

Test call for this molecule, please: O=C1CCCC2=C1C(c1cccs1)CC(=O)N2c1ccc(F)cc1 (stereo not given)
class 0

I'd appreciate the recorded outcome for CCn1ncc(C2=NOC(C(=O)N3CCN(c4ccccc4)CC3)C2)c1C (stereo not given) from this test.
class 0

Call for entry "CCOC(=O)c1ccc(COC(=O)CCc2nc(-c3ccccc3)c(-c3ccccc3)o2)cc1" :
class 1

State the result this test recorded for CC1(C(=O)Nc2cccc3c2CCCC3)CCN1C(=O)CCc1ccc(Cl)cc1Cl (stereo not given) .
class 0

Call for entry "CC(C)Oc1ccc(/C=N/NC(=O)c2nnn(-c3nonc3N)c2CN(C)C2CCCCC2)cc1" :
class 0
